Source: PubChem BioAssay

assay: small-molecule binders of probe aNOTCH3, primary screen, biochemical, small-molecule microarray, 635/667 nm fluorescence (AID 1120); details: higher = more signal;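 also: probe is a biotin-tagged antibody raised against NOTCH3 rather than NOTCH3 protein; score merges spot fluorescence near 667 nm with spot signal to noise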
outcomeMeasure: composite z-score
Answers are plain numbers.

[
  {
    "molecule": "C[C@@H]1CC[C@H]2C(=O)N3[C@@H](CC[C@@H](C)[C@@H]3c3cccc(N4CCOCC4)c3)C(=O)N2[C@H]1c1cccc(Br)c1",
    "assayResult": -0.0259
  },
  {
    "molecule": "CO[C@H]1COC(=O)CC=C[C@H](C)[C@@H](OC)COC(=O)CC=C[C@@H]1C",
    "assayResult": -0.155
  },
  {
    "molecule": "COc1ccc(C(=O)Nc2ccc(CN3C(=O)[C@]4(O[C@H](CCn5cc(CCO)nn5)[C@@H]([Si](C)(C)c5ccc(OC)cc5)[C@@H]4C)c4ccccc43)cc2)cc1",
    "assayResult": 0.391
  },
  {
    "molecule": "C=C(C)[C@@H]1CC=C(C(O)C2C=CC3C(=O)NC(=O)C3N2Nc2ccccn2)CC1 (stereo partly specified)",
    "assayResult": 0.441
  },
  {
    "molecule": "CC(C)N1CC=CC23O[C@@H]4/C=C\\CCCOC(=O)C4[C@H]2C(=O)N(CCCCCO)[C@@H]3C1=O (stereo partly specified)",
    "assayResult": -0.448
  }
]

# map each molecule to its composite z-score
1. C=CCC(OC(C)=O)[C@@H]1[C@@H](N(Cc2cc3ccccc3o2)C(=O)c2ccc(C)cc2)c2cc(OCCCO)ccc2N1C(=O)c1ccc2ccccc2n1 (stereo partly specified)
2. O=C(CS)NCCCCCCNC(=O)[C@@H]1C[C@@H]2C(=O)N[C@@H](Cc3ccccc3)C(=O)N2[C@@H]1c1ccc(O)cc1
3. COC(=O)[C@@]1(Cc2ccccc2CN=[N+]=[N-])N=C(c2ccc(OCCCO)cc2)O[C@H]1c1ccccc1N=[N+]=[N-]

1. -0.0984
2. -0.128
3. -0.0164

Hi there! I need composite z-score for each item below, if you can.
1. COc1ccc([C@H]2C[C@H]3C(Br)=C[C@]2(OC)C(=O)[C@]32CO2)cc1
2. [N-]=[N+]=NCc1ccccc1[C@H]1OC(c2ccc(OCCCO)cc2)=N[C@@]1(Cc1ccccc1N=[N+]=[N-])C(=O)NCc1ccccc1
3. CC(C)(C)OC(=O)CC[C@@]1(C(=O)NCc2ccccc2)N=C(c2ccc(OCCCO)cc2)O[C@@H]1c1ccccc1
4. C=C(COC)/C(=C/C[C@@H](OC(C)=O)c1cccc(OCCO)c1)c1cc(C(=O)OC)ccc1OC
5. O=C1OCC=C[C@H]2OC34C=CCN(Cc5ccccc5)C(=O)[C@H]3N(CCCCCO)C(=O)[C@@H]4[C@@H]12 (stereo partly specified)

1: -0.0918; 2: 0.286; 3: 0.132; 4: -0.0729; 5: -0.231

Look at each molecule and report its composite z-score.
1. C=CCC1=C[C@H]2[C@H]([C@@H]3C=C[C@]2(CC=C)C(=O)[C@]32CO2)[C@@]2(CO2)C1=O
2. O=C(N1CCCCC1)[C@@]1(CCS(=O)(=O)c2ccccc2)N=C(c2ccc(OCCCO)cc2)O[C@H]1c1ccccc1
3. CO[C@H]1COC(=O)[C@H](C)NC(=O)CC=C[C@@H](C)[C@H](NS(=O)(=O)c2ccc(C)cc2)COC(=O)CC=C[C@@H]1C
4. CO[C@@H]1COC(=O)CC=C[C@@H](C)[C@H](OC)COC(=O)CC=C[C@H]1C
5. COC(=O)C1=CC(c2ccc(CO)cc2)=CC(C2CC2)N(Cc2sc3ccccc3c2Cl)C=C1C(=O)OC (stereo unspecified)
6. N#Cc1ccc(NN2C(C(O)CCc3ccccc3)C=CC3C(=O)N(c4ccccc4)C(=O)C32)cc1 (stereo unspecified)
7. CN1CCC(CCCO)=CC1C1CC1 (stereo unspecified)

[0.519, 0.0876, -0.152, -0.103, 0.3, 0.123, -0.0918]
